- Test system: ECC10;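 note: growth inhibition of ECC10 cells, read out by a cell viability assay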
- assay_explanation: cells
- Format: functional, cell-based
- measurement_parameters: Homo sapiens
- Description: SANGER: Inhibition of human ECC10 cell growth in a cell viability assay.
measured_parameter: IC50

*Q* Entry under review: NC(=O)c1ccc(N(C(N)=O)c2c(F)cccc2F)nc1-c1ccc(F)cc1F . Reported IC50?
*A* 0.654 µM

*Q* Entry Cc1ccc(-n2nc(C(C)(C)C)cc2NC(=O)Nc2ccc(OCCN3CCOCC3)c3ccccc23)cc1 : reported IC50 = ?
*A* > 10 µM

*Q* What measured IC50 goes with CN(NC(=O)CC(=O)NN(C)C(=S)c1ccccc1)C(=S)c1ccccc1 ?
*A* > 0.2 µM

* * *

- Tested on: ME-180
- assay_explanation: cells
- Assay type: functional, cell-based
- measurement_parameters: Homo sapiens
- Description: SANGER: Inhibition of human ME-180 cell growth in a cell viability assay.
measured_parameter: IC50

*Q* Lab request: please report IC50 under test system ME-180 for CC1(C)CCC(c2ccc(Cl)cc2)=C(CN2CCN(c3ccc(C(=O)NS(=O)(=O)c4ccc(N[C@H](CCN5CCOCC5)CSc5ccccc5)c(S(=O)(=O)C(F)(F)F)c4)cc3)CC2)C1
*A* > 2 µM

*Q* Missing value: IC50, ME-180, entry O=S(=O)(O)c1ccc2cc(/N=N/c3cc(S(=O)(=O)O)c4cccnc4c3O)ccc2c1 . Fill in?
*A* > 16 µM

*Q* What IC50 appears in the records for this compound with ME-180? CC1=C(/C=C/C(C)=C/C=C/C(C)=C/C(=O)O)C(C)(C)CCC1
*A* > 10 µM

*Q* Request: IC50, test system ME-180, entry CN(NC(=O)CC(=O)NN(C)C(=S)c1ccccc1)C(=S)c1ccccc1;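 note: cell viability assay measuring growth inhibition of ME-180 cells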
*A* 0.0162 µM

* * *

- System: EB2;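 note: growth inhibition of EB2 cells, read out with a cell viability assay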
- assay_explanation: cells
- Assay type: functional, cell-based, Homo sapiens
- measurement_parameters: Homo sapiens, EB2
- Description: SANGER: Inhibition of human EB2 cell growth in a cell viability assay.
Exercise: for every item that follows, state its recorded IC50.

*Q* Quick one: IC50 for CCCCCCCCCCCC1=C(O)C(=O)C=C(O)C1=O ?
*A* 6.17 µM

*Q* Please give the measured IC50 for this compound: Nc1ccccc1NC(=O)c1ccc(CNC(=O)OCc2cccnc2)cc1
*A* > 5 µM

* * *

- Tested on: RPMI-6666
- assay_explanation: cells
- Format: functional, cell-based, Homo sapiens
- measurement_parameters: rpmi-6666
- Description: SANGER: Inhibition of human RPMI-6666 cell growth in a cell viability assay.
pIC50: −log10 of the molar value. Where a SMILES comes first, the peptide text is derived from it. The star is where a group is joined. Cbz = O=C(OCc1ccccc1)*
measured_parameter: pIC50

*Q* Given the compound CC(C)C[C@@H](C=O)NC(=O)[C@H](CC(C)C)NC(=O)[C@H](CC(C)C)NC(=O)OCc1ccccc1 [MG-132] (Cbz-Leu-Leu-Leu-aldehyde) , what is its reported pIC50?
*A* < 6.00

* * *

- Tested on: ATN-1
- assay_explanation: cells
- Assay type: functional, cell-based, Homo sapiens
- measurement_parameters: Homo sapiens, ATN-1
- Description: SANGER: Inhibition of human ATN-1 cell growth in a cell viability assay.
measured_parameter: IC50

*Q* // lookup IC50 for COc1ccc(N(C(=O)Oc2c(C)cccc2C)c2ccnc(Nc3ccc(N4CCN(C)CC4)cc3)n2)c(OC)c1
*A* > 5120 nM

*Q* Given the compound C[C@@H](Oc1cc(-c2cnn(C3CCNCC3)c2)cnc1N)c1c(Cl)ccc(F)c1Cl , what is its reported IC50?
*A* > 2000 nM

*Q* What measured IC50 goes with Cc1ccc(NC(=O)c2ccc(CN3CCN(C)CC3)cc2)cc1Nc1nccc(-c2cccnc2)n1 ?
*A* > 2000 nM

*Q* Would you kindly share the measured IC50 for NC(=O)Nc1cc(-c2cccc(F)c2)sc1C(=O)N[C@H]1CCCNC1 ?
*A* 34.2 nM
